# Test system: P. falciparum NF54
# experiment: In vitro microplate 3H-hypoxanthine incorporation assay against P. falciparum NF54
# Type: cell-based, Plasmodium falciparum
# measurement.setup: L-6 cytotoxicity over P.f. NF54
metric.name: S.I. = IC50 (Cyt.)/IC50 (P.f. NF54)
Returns: the value as a bare number; no unit string appended.

Completed entries (count: 8):
INSERT INTO results (compound, metric_name, data_value) VALUES
  ('O=S(=O)(c1ccc(Cl)cc1)N1CCC2(N3CCCC3)C[C@H](c3ccccc3)C1[C@@H](c1ccccc1)C2 (racemic)', 'S.I. = IC50 (Cyt.)/IC50 (P.f. NF54)', 10.4),
  ('CCN(CC)CCCC(C)Nc1ccnc2cc(Cl)ccc12 (stereo not drawn) [CQ, chloroquine, reference compound]', 'S.I. = IC50 (Cyt.)/IC50 (P.f. NF54)', 23308),
  ('CC(C)(C)C(NCCN1CC2[C@H](c3ccccc3)CC(N3CCCCC3)(C[C@H]2c2ccccc2)C1)c1nnnn1C(C)(C)C (mixture of isomers) [Compound 11A]', 'S.I. = IC50 (Cyt.)/IC50 (P.f. NF54)', 6.75),
  ('CC(C)(C)n1nnnc1[C@H](NCCN1CC2C(c3ccccc3)CC(N3CCCCC3)(CC2c2ccccc2)C1)c1ccccc1 (mixture of isomers) [Compound 12A]', 'S.I. = IC50 (Cyt.)/IC50 (P.f. NF54)', 11.2),
  ('CC(C)(C)n1nnnc1CN(CCN1CC2[C@H](c3ccccc3)CC(N3CCCCC3)(C[C@H]2c2ccccc2)C1)Cc1nnnn1C(C)(C)C (racemic)', 'S.I. = IC50 (Cyt.)/IC50 (P.f. NF54)', 5.62),
  ('CC(C)(C)n1nnnc1C(NCCN1CC2C(c3ccccc3)CC(N3CCCCC3)(CC2c2ccccc2)C1)c1ccccc1 (racemic) [Compound 12B]', 'S.I. = IC50 (Cyt.)/IC50 (P.f. NF54)', 1.92),
  ('Cc1ccc(S(=O)(=O)NCCN2CCC3(N4CCCCC4)C[C@H](c4ccccc4)C2[C@@H](c2ccccc2)C3)cc1 (racemic)', 'S.I. = IC50 (Cyt.)/IC50 (P.f. NF54)', 18.7),
  ('Cc1ccc(S(=O)(=O)NCCN2CCC3(N4CCCC4)C[C@H](c4ccccc4)C2[C@@H](c2ccccc2)C3)cc1 (racemic)', 'S.I. = IC50 (Cyt.)/IC50 (P.f. NF54)', 14.7);

**Query** Can you look up the measured S.I. = IC50 (Cyt.)/IC50 (P.f. NF54) of Cc1ccc(C(NCCN2CC3C(c4ccccc4)CC(N4CCCCC4)(CC3c3ccccc3)C2)c2nnnn2C(C)(C)C)cc1 (stereo in doubt) [Compound 13B] for me?
**Result** 3.03

**Query** Please give the measured S.I. = IC50 (Cyt.)/IC50 (P.f. NF54) for this compound: Cc1ccc([C@@H](NCCN2CC3C(c4ccccc4)CC(N4CCCCC4)(CC3c3ccccc3)C2)c2nnnn2C(C)(C)C)cc1 (mixture of isomers) [Compound 13A]
**Result** 5.72

**Query** What value of S.I. = IC50 (Cyt.)/IC50 (P.f. NF54) has been reported for the following compound? CC(C)(C)n1nnnc1CNCCN1CC2[C@H](c3ccccc3)CC(N3CCCCC3)(C[C@H]2c2ccccc2)C1 (racemic)
**Result** 8.76

**Query** What S.I. = IC50 (Cyt.)/IC50 (P.f. NF54) value was documented for this compound, CC(C)(C)C(NCCN1CC2[C@@H](c3ccccc3)CC(N3CCCCC3)(C[C@@H]2c2ccccc2)C1)c1nnnn1C(C)(C)C (mixture of isomers) [Compound 11B] ?
**Result** 4.99
